These data points were gathered from patent US20250223359A1.

Entries annotated with measured pKd
Molecular target: T1, Human CD2 (recombinant extracellular domain, Avi-tagged) (human, UniProt P06729 25-209, site selectively biotinylated during expression (C-terminal Avi-Tag, BirA co-transfection))
T1 construct: Produced in HEK293 cells; also called recombinant human CD2
T1 sequence: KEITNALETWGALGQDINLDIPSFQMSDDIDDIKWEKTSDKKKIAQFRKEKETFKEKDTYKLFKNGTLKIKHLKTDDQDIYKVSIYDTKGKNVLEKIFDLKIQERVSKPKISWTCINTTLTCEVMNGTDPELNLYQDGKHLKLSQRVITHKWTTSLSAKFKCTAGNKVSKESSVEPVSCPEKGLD
Assay: ITC; 100 uM CD2 titrated into 10 uM CD58 variant in HBS
pKd is a log-scale quantity: -log10 of the concentration expressed in molar.

Query block: // returns reported pKd for input CD58_IgV (ligand, also called CD58 domain 1; IgV WT) SQQIYGVVYGNVTFHVPSNVPLKEVLWKKQKDKVAELENSEFRAFSSFKNRVYLDTVSGSLTIYNLTSSDEDEYEMESPNITDTMKFFLYVLESGGGGSHHHHHHHH
Result block: 6.21

Query block: // returns reported pKd for input CD58 IgV V45C_M114C (ligand, Disulfide-stabilized variant) SQQIYGVVYGNVTFHCPSNVPLKEVLWKKQKDKVAELENSEFRAFSSFKNRVYLDTVSGSLTIYNLTSSDEDEYEMESPNITDTCKFFLYVLESGGGGSHHHHHHHH
Result block: 6.42

Query block: // returns reported pKd for input CD58 IgV V54C_G88C (ligand, Disulfide-stabilized variant) SQQIYGVVYGNVTFHVPSNVPLKECLWKKQKDKVAELENSEFRAFSSFKNRVYLDTVSCSLTIYNLTSSDEDEYEMESPNITDTMKFFLYVLESGGGGSHHHHHHHH
Result block: 6.22

Query block: // returns reported pKd for input CD58 IgV V45C_M105C (ligand, Disulfide-stabilized variant) SQQIYGVVYGNVTFHCPSNVPLKEVLWKKQKDKVAELENSEFRAFSSFKNRVYLDTVSGSLTIYNLTSSDEDEYECESPNITDTMKFFLYVLESGGGGSHHHHHHHH
Result block: 6.06
